# SYSTEM_NAME: hG7-BM1 (hVH-B1, hVL-B1) (human)
# Sequence (heavy, as listed by the source, chain 1 of 2): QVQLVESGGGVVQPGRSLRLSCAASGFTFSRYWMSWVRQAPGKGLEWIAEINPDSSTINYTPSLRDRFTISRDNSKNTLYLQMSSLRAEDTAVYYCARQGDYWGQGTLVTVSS
# Sequence (light, as listed by the source, chain 2 of 2): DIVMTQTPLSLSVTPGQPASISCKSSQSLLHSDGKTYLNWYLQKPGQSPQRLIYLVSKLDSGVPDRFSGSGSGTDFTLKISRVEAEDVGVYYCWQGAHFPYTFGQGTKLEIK
# EXPERIMENT_SUMMARY: SPR; Biacore X100; CD24-GST flowed over immobilized antibody; 1:1 binding model; procedure as in ref. 45
PARAMETER: Kd (nM)
Expressed in nM, but write only the number.

In plain terms, SETTTGTSSNSSQSTSNSGLAPNPTNATTKAAG (natural protein) [CD24-GST] has a documented Kd of 1.64
